Tested on: Streptococcus pneumonia (5 strains)
Assay: MIC range, broader panel of Quotient Bioresearch strains (Table 3)
Settings: Streptococcus pneumoniae, read-out: MIC Range Median, Streptococcus pneumonia (5 strains)

molecule | MIC50 (µg/mL)
Cc1c(-c2ccc3[nH]ncc3c2)ccn2c(=O)c(C(=O)[O-])cc(C3CC3)c12.[K+] [Example 23 K salt] | 0.03
Cc1c(-c2ccc(CN)cc2)ccn2c(=O)c(C(=O)[O-])cc(C3CC3)c12.[K+] [Example 31 K salt] | 0.12
Cc1c(C2=CCNCC2)ccn2c(=O)c(C(=O)O)cc(C3CC3)c12 | 4
Cc1c(-c2ccc(O)cc2)ccn2c(=O)c(C(=O)[O-])cc(C3CC3)c12.[K+] [Example 46 K salt] | 0.06
Cc1c(-c2cc(F)c(N)c(F)c2)ccn2c(=O)c(C(=O)[O-])cc(C3CC3)c12.[K+] [Example 39 K salt] | 0.12
Cc1c(-c2ccc(N)nc2)ccn2c(=O)c(C(=O)[O-])cc(C3CC3)c12.[K+] [Example 21 K salt] | 0.06
Cc1c(-c2ccc(C(N)=O)cc2)c(F)cn2c(=O)c(C(=O)[O-])cc(C3CC3)c12.[K+] [Example 6 K salt] | 0.25
